Reference source for all entries: patent US7579356B2

# Assayed target: Lyn kinase (human) (Homo sapiens, UniProt P07948)
# Construct: purchased Upstate Biotechnology, Lake Placid, N.Y
# Sequence (P07948 whole entry): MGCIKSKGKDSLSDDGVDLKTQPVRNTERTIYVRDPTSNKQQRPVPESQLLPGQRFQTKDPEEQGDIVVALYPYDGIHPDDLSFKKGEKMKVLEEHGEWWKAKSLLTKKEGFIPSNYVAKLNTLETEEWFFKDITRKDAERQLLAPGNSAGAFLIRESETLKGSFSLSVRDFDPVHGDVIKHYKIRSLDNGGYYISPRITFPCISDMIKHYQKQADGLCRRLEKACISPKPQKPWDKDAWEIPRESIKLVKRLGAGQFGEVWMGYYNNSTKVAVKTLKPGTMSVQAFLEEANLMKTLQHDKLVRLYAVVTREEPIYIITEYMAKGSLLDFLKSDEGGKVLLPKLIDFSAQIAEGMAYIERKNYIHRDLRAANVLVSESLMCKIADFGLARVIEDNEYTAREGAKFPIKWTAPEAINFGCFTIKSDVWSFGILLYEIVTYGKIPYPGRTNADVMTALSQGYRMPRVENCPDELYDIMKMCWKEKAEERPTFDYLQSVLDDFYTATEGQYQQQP
# Assay notes: Lyn Kinase Assay
# Type: biochemical
# Details: test concentration of 2 μM
# Description: A mixture of a 10× kinase buffer (500 mM MOPS at pH 7.5, 1 mM EGTA, 1 mM Sodium Vanadate, 1% β-mercaptoethanol and 100 mM Magnesium Acetate), ATP (5 μM final from a 10 mM stock), polyGluTyr (0.1 mg/mL final from a 1 mg/mL stock), γ-^33P ATP (10 μCl/μL stock) and water (for a total of 20 μL/well) was added to each well of a Streptavidin Flashplate. Test compound in 100% DMSO (0.5 μL) was added to the appropriate wells. […]
Measurement name: inhibition at 2 µM

Known inhibition at 2 µM results, listed for orientation:
Exam item: Could you tell me which inhibition at 2 µM is on file for CN1CCN(Cc2ccc(NC(=O)c3sc4ncnc5c4c3NC(=O)N5c3ccc(Oc4ccccc4)c(F)c3)cc2)CC1 [Cpd 115] ?
Marked response: 51.2%

Exam item: Entry to check: CN1CCN(Cc2ccc(NC(=O)c3sc4ncnc5c4c3NC(=O)N5c3ccc(OCc4ccccn4)c(Cl)c3)cc2)CC1 [Cpd 90]
Marked response: -8.1%

Exam item: Entry to check: O=C(Nc1ccc(CCN2CCCCC2)cc1)c1sc2ncnc3c2c1NC(=O)N3c1ccc(Oc2ccccc2)cc1 [Cpd 166]
Marked response: 51%

Exam item: Entry to check: O=C(Nc1ccc(CN2CCCCC2)cc1)c1sc2ncnc3c2c1NC(=O)N3c1ccc(N2CCOCC2)cc1 [Cpd 124]
Marked response: 18%

Exam item: Entry to check: O=C(O)c1sc2ncnc3c2c1NC(=O)N3c1ccc(OCc2ccccn2)c(Cl)c1 [Cpd 38]
Marked response: -16%

Exam item: Entry to check: Cc1cccc(Cl)c1N1C(=O)Nc2c(C(=O)Nc3ccc(CN4CCCCC4)cc3)sc3ncnc1c23 [Cpd 147]
Marked response: 76%

Exam item: Entry to check: COc1cc(N2C(=O)Nc3c(C(=O)Nc4ccc(CN5CCOCC5)cc4)sc4ncnc2c34)c(Cl)cc1Cl [Cpd 44]
Marked response: 49%

Exam item: Entry to check: O=C(Nc1ccc(CN2CCCCC2)cc1)c1sc2ncnc3c2c1NC(=O)N3c1ccccc1Cl [Cpd 150]
Marked response: 77%

Next:
Exam item: Could you tell me which inhibition at 2 µM is on file for CN1CCN(Cc2ccc(NC(=O)c3sc4ncnc5c4c3NC(=O)N5c3cc(OCc4cccc(F)c4)c(Cl)cc3Cl)cc2)CC1 [Cpd 61] ?
Marked response: 30%

Exam item: Entry to check: O=C(O)c1sc2ncnc3c2c1NC(=O)N3c1ccc(Oc2ccccc2)cc1 [Cpd 168]
Marked response: 28%

Exam item: Entry to check: COc1ccc(N2C(=O)Nc3c(C(=O)Nc4ccc(OCCN5CCOCC5)c(OC)c4)sc4ncnc2c34)c(F)c1 [Cpd 67]
Marked response: 22.5%

Exam item: Entry to check: O=C(Nc1ccc(CN2CCCCC2)cc1)c1sc2ncnc3c2c1NC(=O)N3c1ccc(-c2ccc(Cl)cc2)cc1 [Cpd 139]
Marked response: 34%

Exam item: Entry to check: COc1cc(N2C(=O)Nc3c(C(=O)Nc4ccc(CN5CCCCC5)cc4)sc4ncnc2c34)c(Cl)cc1Cl [Cpd 33]
Marked response: 36%

Exam item: Entry to check: COc1ccc(Cl)c(N2C(=O)Nc3c(C(=O)O)sc4ncnc2c34)c1 [Cpd 47]
Marked response: 28%

Exam item: Entry to check: CCOC(=O)c1sc2ncnc3c2c1NC(=O)N3c1ccc(C)c(Br)c1 [Cpd 102]
Marked response: 8%

Exam item: Entry to check: O=C(Nc1ccc(CN2CCOCC2)cc1)c1sc2ncnc3c2c1NC(=O)N3c1ccc2c(cnn2Cc2cccc(F)c2)c1 [Cpd 175]
Marked response: 0%
